Biological target: Smc3 head domain (Saccharomyces cerevisiae, UniProt P47037)
Construct: C′ terminal (amino acids 1001-1230); linker […]; made in house; host or cells: E. coli BL21
Sequence (P47037 with tags, fused parts or gaps): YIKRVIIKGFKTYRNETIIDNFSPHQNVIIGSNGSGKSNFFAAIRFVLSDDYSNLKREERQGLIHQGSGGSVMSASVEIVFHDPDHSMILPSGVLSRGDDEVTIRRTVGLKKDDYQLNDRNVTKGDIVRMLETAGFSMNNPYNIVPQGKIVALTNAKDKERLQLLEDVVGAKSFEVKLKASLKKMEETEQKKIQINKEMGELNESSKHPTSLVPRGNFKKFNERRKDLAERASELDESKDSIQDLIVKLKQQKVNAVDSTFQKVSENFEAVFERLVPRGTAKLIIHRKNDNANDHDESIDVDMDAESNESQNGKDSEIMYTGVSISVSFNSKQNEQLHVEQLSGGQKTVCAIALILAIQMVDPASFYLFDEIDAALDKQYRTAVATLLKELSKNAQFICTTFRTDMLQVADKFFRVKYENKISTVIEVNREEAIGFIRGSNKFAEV
Assay: Field-effect biosensing (FEB Agile R100) binding of peptide to Smc3 head domain
Details: without ATP; 500 nM peptide immobilized on graphene chip, Smc3 head domain 20-4000 μM (0.02–4 mM) in PBS; Hill fit or kon/koff
Where no end group is shown, it is not given here.
measured-parameter: pKd
In plain terms, pKd is the concentration in mol/L turned into minus its base-10 logarithm.

Q) // lookup pKd for KRFKDMEYLSGGEKTGGYGRKKRRQRRR [CIP3-TAT]
A) 7.27

Measured values drawn from paper PMC10470313 for this set.
